# PROTOCOL: NCI Yeast Anticancer Drug Screen. Data for the bub3 strain (AID 167)
# CONDITION_PARAMETERS: S. cerevisiae bub3 mutant strain, at 50.0 µM, active compounds read high
About 79,000 compounds went through this panel and 15% of them were active in at least one assay; those are over-represented in the sample as a whole.
Some molecules, each annotated with its measured growth inhibition.

>  <MOLECULE>
CC(C)C(=O)c1ccccc1Cl

>  <growth inhibition [%]>
2.7

$$$$
>  <MOLECULE>
CCOC(=O)c1c(SC(=O)c2ccc(C(C)(C)C)cc2)n(-c2ccccc2)c(=S)n(-c2ccccc2)c1=O

>  <growth inhibition [%]>
40

$$$$
>  <MOLECULE>
C=CCOC/C=C\CCOCC/C=C/COCC=C (tested in a mixture with another compound)

>  <growth inhibition [%]>
2.45

$$$$
>  <MOLECULE>
COc1ccc(C(O)(c2ccc(OC)cc2)c2ccccc2Cc2ccccc2OC)cc1

>  <growth inhibition [%]>
0.65

$$$$
>  <MOLECULE>
Cc1ccc(NC(=S)N(CCC#N)C2CCCCC2)cc1

>  <growth inhibition [%]>
6.3

$$$$
>  <MOLECULE>
NNC(=O)CSc1ncnc2nc[nH]c12

>  <growth inhibition [%]>
9.65

$$$$
>  <MOLECULE>
CCn1c(=O)c2c3ccc(O)cc3[nH]c2c2ccc(O)cc21

>  <growth inhibition [%]>
-23.8

$$$$
>  <MOLECULE>
N/C(=N\S(=O)(=O)c1cc(C(F)(F)F)cc(C(F)(F)F)c1)c1ccncc1

>  <growth inhibition [%]>
19.6

$$$$
>  <MOLECULE>
Nc1nnnn1C1CCCCC1

>  <growth inhibition [%]>
-11.3

$$$$
>  <MOLECULE>
O=C(CSc1nnc(Cc2ccccc2)o1)Nc1ccc([N+](=O)[O-])cc1

>  <growth inhibition [%]>
19

$$$$
>  <MOLECULE>
C=CCCCCCC(O)C(O)C/C=C\C/C=C\CC (configuration not stated)

>  <growth inhibition [%]>
15.5

$$$$
>  <MOLECULE>
N#CCCCNc1ccccc1

>  <growth inhibition [%]>
-8.6

$$$$

###

# PROTOCOL: NCI Yeast Anticancer Drug Screen. Data for the sgs1 mgt1 strain (AID 161);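 also: 0% = growth of cultures given vehicle only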
# CONDITION_PARAMETERS: S. cerevisiae sgs1 mgt1 strain, at 50.0 µM, active compounds read high
The panel holds about 79,000 compounds, 15% with a hit somewhere; the sample as a whole holds those more often.
Some compounds, each annotated with its measured growth inhibition.

>  <COMPOUND>
CC1(C)N=C(C(N)=O)c2ncn(CCO)c2N1

>  <QUANTITY_UNIT>
%

>  <growth inhibition>
-21.6

$$$$
>  <COMPOUND>
O/N=C1/CC2CCCCC2CC1(O)c1ccccc1 (stereo not given)

>  <QUANTITY_UNIT>
%

>  <growth inhibition>
17.6

$$$$
>  <COMPOUND>
CC(C)c1ccc(OC(=O)Nc2c(Cl)cccc2Cl)cc1

>  <QUANTITY_UNIT>
%

>  <growth inhibition>
5.95

$$$$
>  <COMPOUND>
CC(C)C(C(=O)O)N(C)C(=O)c1cnc2ccccc2n1 (stereo not given)

>  <QUANTITY_UNIT>
%

>  <growth inhibition>
-0.6

$$$$
>  <COMPOUND>
CCOC(=O)c1cnc2c(ccc3ncccc32)c1OCC

>  <QUANTITY_UNIT>
%

>  <growth inhibition>
7.8

$$$$
>  <COMPOUND>
COc1ccccc1NC(=O)/C(=C/C1CC(=O)NC1=S)C(C)=O (stereo not given)

>  <QUANTITY_UNIT>
%

>  <growth inhibition>
-18.6

$$$$
>  <COMPOUND>
CCCCCCCCCCCC(=O)N(CCOC(=O)c1ccccc1)CCc1ccccc1

>  <QUANTITY_UNIT>
%

>  <growth inhibition>
16.6

$$$$
>  <COMPOUND>
Cc1ccc(C)c(NC(=O)Oc2ccc(Br)cc2Br)c1

>  <QUANTITY_UNIT>
%

>  <growth inhibition>
3.4

$$$$
>  <COMPOUND>
Nc1nc(SC2CCCCC2)nc2c1ncn2C1OC(CO)C(O)C1O (stereo not given)

>  <QUANTITY_UNIT>
%

>  <growth inhibition>
-8.15

$$$$
>  <COMPOUND>
CC(=O)Nc1cc2c3c(c1)CCCN3CCC2

>  <QUANTITY_UNIT>
%

>  <growth inhibition>
-38.2

$$$$
>  <COMPOUND>
COC(=O)C1(C)C(=O)NC(=O)CC1C (stereo not given)

>  <QUANTITY_UNIT>
%

>  <growth inhibition>
1

$$$$
>  <COMPOUND>
O=S1(=O)CCC(Br)c2ccccc21 (stereo not given)

>  <QUANTITY_UNIT>
%

>  <growth inhibition>
0.4

$$$$
>  <COMPOUND>
N#C/C(=C/C=C/c1ccccc1)c1ccc([N+](=O)[O-])cc1

>  <QUANTITY_UNIT>
%

>  <growth inhibition>
24.8

$$$$
>  <COMPOUND>
Cc1cc2nc(CC(C(F)(F)F)C(F)(F)F)oc2cc1C

>  <QUANTITY_UNIT>
%

>  <growth inhibition>
-13.2

$$$$
>  <COMPOUND>
CSc1nc(NC2OCC(O)C(O)C2O)c(Cl)c(=O)[nH]1 (stereo not given)

>  <QUANTITY_UNIT>
%

>  <growth inhibition>
12.3

$$$$
>  <COMPOUND>
CCOC(=O)c1ccc(NC(=O)Oc2ccc(C=O)cc2OC)cc1

>  <QUANTITY_UNIT>
%

>  <growth inhibition>
7.85

$$$$
>  <COMPOUND>
CC1(C)CNC(C)(C)CN1

>  <QUANTITY_UNIT>
%

>  <growth inhibition>
4.35

$$$$
>  <COMPOUND>
CCc1ccc(NC(=O)Nc2cccc(Cl)c2)cc1

>  <QUANTITY_UNIT>
%

>  <growth inhibition>
-5.35

$$$$
>  <COMPOUND>
O=C1CNC(=O)N1CCCl

>  <QUANTITY_UNIT>
%

>  <growth inhibition>
-7.65

$$$$
>  <COMPOUND>
CC(C)CSc1nc2ccc(N=Cc3ccccc3O)cc2s1

>  <QUANTITY_UNIT>
%

>  <growth inhibition>
-11.3

$$$$
>  <COMPOUND>
CCOC(=O)/C(C#N)=C(O)\C(=C\c1ccc(Cl)cc1)NC(=O)c1ccc(NC(C)=O)cc1

>  <QUANTITY_UNIT>
%

>  <growth inhibition>
-17.4

$$$$
>  <COMPOUND>
CN1CCCCC1C[CH2][Sn]([c]1ccccc1)([c]1ccccc1)[c]1ccccc1 (stereo not given)

>  <QUANTITY_UNIT>
%

>  <growth inhibition>
99.7

$$$$
>  <COMPOUND>
C=CCOC(=O)NC(CCC(=O)OC)C(=O)O (stereo not given)

>  <QUANTITY_UNIT>
%

>  <growth inhibition>
-6.25

$$$$
>  <COMPOUND>
OCCO

>  <QUANTITY_UNIT>
%

>  <growth inhibition>
-49.3

$$$$
>  <COMPOUND>
O=Cc1ccccc1CCn1c(=O)c2cc3c(=O)n(CCc4ccccc4C=O)c(=O)c3cc2c1=O

>  <QUANTITY_UNIT>
%

>  <growth inhibition>
11.8

$$$$
